# test.system: JAK2 (Homo sapiens, UniProt O60674)
# Construct: made in house; host or cells: SF9 insect cells (baculovirus)
# Sequence (O60674 812-1132): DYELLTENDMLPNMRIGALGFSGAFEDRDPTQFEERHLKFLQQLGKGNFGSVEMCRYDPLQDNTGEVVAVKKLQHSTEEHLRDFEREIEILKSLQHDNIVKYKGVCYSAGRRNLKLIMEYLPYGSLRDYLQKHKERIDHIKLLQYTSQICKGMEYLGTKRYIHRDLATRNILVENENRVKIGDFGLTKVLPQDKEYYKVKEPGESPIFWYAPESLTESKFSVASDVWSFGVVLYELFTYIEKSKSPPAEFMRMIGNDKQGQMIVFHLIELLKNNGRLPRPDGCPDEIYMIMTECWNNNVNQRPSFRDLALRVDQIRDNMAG
# protocol.details: JAK2 inhibition (Table 4)
# Assay type: biochemical
# study.conditions: read-out: JAK2 Ki
pKi: −log10 of the molar value.
pKi values for the compounds below.
endpoint: pKi

                                   compound                          test_system  endpoint  test_value
0  CC1(C)CC1C(=O)N1CCC[C@@H](n2cnc3cnc4[nH]ccc4c32)C1 (some centres unmarked)  JAK2 (Homo sapiens, UniProt O60674)       pKi        7.74
1  COC(=O)N[C@H]1CC[C@H](n2nnc3cnc4[nH]ccc4c32)CC1  JAK2 (Homo sapiens, UniProt O60674)       pKi        7.82
2  CS(=O)(=O)NCCc1nc2cnc3[nH]ccc3c2n1[C@@H]1CCCOC1  JAK2 (Homo sapiens, UniProt O60674)       pKi        6.36
3  c1cnc(CN2CCC(n3cnc4cnc5[nH]ccc5c43)CC2)cn1  JAK2 (Homo sapiens, UniProt O60674)       pKi        8.21
4  COCCNC(=O)O[C@H]1CC[C@H](n2cnc3cnc4[nH]ccc4c32)CC1  JAK2 (Homo sapiens, UniProt O60674)       pKi        7.54
